The origin of these recorded values is PubChem BioAssay.

TEST PROTOCOL: kinase inhibitors against Plasmodium liver-stage infection, cell-based, known kinase inhibitor set, luminescence, hepatoma host viability (AID 624392);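 note: infected cells incubated roughly two days before readout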
TEST PARAMETERS: Plasmodium liver stage in hepatoma cells, luciferase luminescence, concentration not given here; stronger effect = lower value
Output schema: class label derived from parasite % of control. Mapping: low class: < 30%; middle class: ≥ 30% and < 50%; high class: ≥ 50%

Incoming: Any idea which band Fc1ccc(-c2cc(C3CNNC3c3ccccn3)ccn2)cc1 (stereo not given) is in?
Outgoing: high class

Incoming: Any idea which band `Cc1[nH]nc2c1N=C(c1ccccc1Cl)c1cc([N+](=O)[O-])ccc1N2` is in?
Outgoing: middle class

Incoming: Any idea which band `Cn1cc(C2=C(c3cc[nH]c3)C(=O)NC2=O)c2ccccc21` is in?
Outgoing: low class

Incoming: Any idea which band `Fc1ccc(-c2nn3ncccc3c2-c2ccnc(Nc3ccc4c(c3)OCCO4)n2)cc1` is in?
Outgoing: low class

Incoming: Any idea which band `Cc1c2ccc(N(C)c3ccnc(Nc4cccc(S(N)(=O)=O)c4)n3)cc2nn1C` is in?
Outgoing: high class

Incoming: Any idea which band `COc1ccc(F)cc1C(=O)c1cnc(NC2CCN(S(C)(=O)=O)CC2)nc1N` is in?
Outgoing: high class

Incoming: Any idea which band `COc1ccccc1CN=C1NC(=O)C(=Cc2ccc3ncccc3c2)S1` is in?
Outgoing: low class

Incoming: Any idea which band `O=C1NC(=NCc2ccccc2)SC1=Cc1ccc2ncccc2c1` is in?
Outgoing: middle class

###

Tested on: R275C/Slo1WT/beta2
TEST PROTOCOL: modulators of BK channel variants, profiling panel, selectivity assay, cell-based, U2OS BacMam, thallium flux, beta subunits (AID 1259406);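 note: initial slope of Thallos dye fluorescence rise after thallium is added; log ratio against the mean of 0.3% DMSO vehicle wells on the same plate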
TEST PARAMETERS: at 30 µM
Mark criterion not met for log fold change Tl+ flux values under 0.02, and criterion met for everything at or above.

Incoming: In plain terms: is recorded log fold change Tl+ flux at least 0.02 for `O=S(=O)(O)CCS` ?
Outgoing: criterion not met

Incoming: In plain terms: is recorded log fold change Tl+ flux at least 0.02 for `Cc1nc2ccccn2c(=O)c1CCN1CCC(C(=O)c2ccc(F)cc2)CC1` ?
Outgoing: criterion not met

Incoming: In plain terms: is recorded log fold change Tl+ flux at least 0.02 for `CN(C)c1ccc(O)c2c1C[C@H]1C[C@H]3[C@H](N(C)C)C(=O)C(C(N)=O)=C(O)[C@@]3(O)C(=O)C1=C2O` ?
Outgoing: criterion not met

Incoming: In plain terms: is recorded log fold change Tl+ flux at least 0.02 for `CCOC(=O)[C@H](CCc1ccccc1)N[C@@H](C)C(=O)N1Cc2ccccc2C[C@H]1C(=O)O` ?
Outgoing: criterion met

Incoming: In plain terms: is recorded log fold change Tl+ flux at least 0.02 for `CN(C)C(=O)Oc1ccc[n+](C)c1` ?
Outgoing: criterion met

###

TEST PROTOCOL: growth inhibition of GSK3B-pretreated HCT116 cells – cell-based, CellTiter-Glo, 0.2 to 20 µM (AID 1117336)
TEST PARAMETERS: HCT116 viability after GSK3B inhibitor, at 20 µM, stronger effect = higher value
Output schema: class label derived from viability decrease. Mapping: low range = under -10%, mid range = from -10% up to 20%, high range = 20% and over

Incoming: Any idea which band `CCCCCCNC(=O)n1cc(F)c(=O)[nH]c1=O` is in?
Outgoing: high range

Incoming: Any idea which band `OCCCc1ccccc1` is in?
Outgoing: mid range

Incoming: Any idea which band `C/C(=N\O)c1ccc(OCC(=O)N2CCCCC2)cc1` is in?
Outgoing: mid range

Incoming: Any idea which band CC[N+]1(CC)CCC(=C(c2ccccc2)c2ccccc2)C1C (configuration not stated) is in?
Outgoing: mid range

Incoming: Any idea which band `Cc1cc(N)c2cc(NC(=O)Nc3ccc4nc(C)cc(N)c4c3)ccc2n1` is in?
Outgoing: high range

Incoming: Any idea which band OC(CCN1CCCCC1)(c1ccccc1)C1CCCCC1 (configuration not stated) is in?
Outgoing: low range

Incoming: Any idea which band `O=c1n(CCCN2CCN(c3cccc(Cl)c3)CC2)nc2ccccn12` is in?
Outgoing: low range

Incoming: Any idea which band `Cc1cn([C@H]2C[C@H](F)[C@@H](CO)O2)c(=O)[nH]c1=O` is in?
Outgoing: mid range

Incoming: Any idea which band `NS(=O)(=O)c1cc(-c2nn[nH]n2)c(NCc2cccs2)cc1Cl` is in?
Outgoing: mid range

Incoming: Any idea which band FC1(F)C(F)(F)C(F)(F)C2(F)C(F)(F)C(F)(F)C(F)(F)C(F)(F)C2(F)C1(F)F (configuration not stated) is in?
Outgoing: mid range

Incoming: Any idea which band `CCCCNc1cc(C(=O)O)cc(S(N)(=O)=O)c1Oc1ccccc1` is in?
Outgoing: low range

###

TEST PROTOCOL: growth inhibition of CRL1545 osteosarcoma cells, cell-based, cisplatin and BGB IC20 combos (AID 1671464);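 note: cells exposed to compound for 96 hours before readout; 0% = vehicle DMSO and 100% = high DMSO killing control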
TEST PARAMETERS: single agent, at 0.05 µM, stronger effect = higher value
TEST READOUT: inhibition (%)
A number alone suffices; assume %.

Incoming: Return inhibition (reported value) for this molecule: CCN(CC)CCCC(C)Nc1c2ccc(Cl)cc2nc2ccc(OC)cc12 (stereo not given)
Outgoing: -8.93

Incoming: Return inhibition (reported value) for this molecule: `CC(=O)OCC(CCn1cnc2cnc(N)nc21)COC(C)=O`
Outgoing: -17

Incoming: Return inhibition (reported value) for this molecule: `O=C(O)CCCc1ccccc1`
Outgoing: -12.3

Incoming: Return inhibition (reported value) for this molecule: `O=C1c2c(O)ccc(O)c2C(=O)c2c(NCCNCCO)ccc(NCCNCCO)c21`
Outgoing: 43.2

Incoming: Return inhibition (reported value) for this molecule: `O=c1[nH]cc(F)c(=O)[nH]1`
Outgoing: -3.52

###

TEST PROTOCOL: kinase inhibitors altering Pseudomonas killing of worms, whole organism (AID 651566);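 note: sign flipped so higher z means a lower ratio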
TEST PARAMETERS: C. elegans killed by P. aeruginosa, survival ratio
Mark no for z-score values under 0.5, and yes for everything at or above.

Incoming: In plain terms: is recorded z-score at least 0.5 for `Cc1ccc(Nc2ccnc(Nc3cccc(C(N)=O)c3)n2)cc1O` ?
Outgoing: no

Incoming: In plain terms: is recorded z-score at least 0.5 for `Cc1ccc(NC(=O)c2ccnc(N3CCCC3)c2)cc1-c1ccc(C(=O)NCC2CC2)cc1` ?
Outgoing: no

Incoming: In plain terms: is recorded z-score at least 0.5 for `Fc1ccc(-c2ncn(C3CCNCC3)c2-c2ccnc(Oc3ccc(Oc4ccccc4)cc3)n2)cc1` ?
Outgoing: no

Incoming: In plain terms: is recorded z-score at least 0.5 for `NC(=O)c1ccc(Oc2nccc(-c3c(-c4ccc(F)cc4)ncn3C3CCNCC3)n2)cc1` ?
Outgoing: no

Incoming: In plain terms: is recorded z-score at least 0.5 for `O=S1CCN(Cc2ccc(-c3ccc4ncnc(Nc5ccc(OCc6ccccc6)c(Cl)c5)c4c3)o2)CC1` ?
Outgoing: yes

Incoming: In plain terms: is recorded z-score at least 0.5 for `CN(C)CCCn1c(-c2nonc2N)nc2cnccc21` ?
Outgoing: no

Incoming: In plain terms: is recorded z-score at least 0.5 for `CC(=O)Nc1cccc(C#Cc2cncnc2Nc2ccc(OCc3cccc(F)c3)c(Cl)c2)n1` ?
Outgoing: no

Incoming: In plain terms: is recorded z-score at least 0.5 for `COc1cc(Nc2ncc(-c3ccccc3)o2)cc(OC)c1` ?
Outgoing: no

Incoming: In plain terms: is recorded z-score at least 0.5 for `CCn1c(-c2nonc2N)nc2c(C#CC(C)(C)O)nc(O[C@@H](CN)c3ccccc3)cc21` ?
Outgoing: yes

Incoming: In plain terms: is recorded z-score at least 0.5 for `CCc1nccc2c1nc(-c1nonc1N)n2CC` ?
Outgoing: no

Incoming: In plain terms: is recorded z-score at least 0.5 for `CCCN1CCC=C(c2ccc(Nc3nc(Nc4ccccc4C(N)=O)c4cc[nH]c4n3)c(C)c2)C1` ?
Outgoing: no

Incoming: In plain terms: is recorded z-score at least 0.5 for Fc1ccc(-c2cc(C3CNNC3c3ccccn3)ccn2)cc1 (stereo unspecified) ?
Outgoing: no

Incoming: In plain terms: is recorded z-score at least 0.5 for `c1cc(-c2cnn3nc(N4CCOCC4)ccc23)nc(NC2CC2)n1` ?
Outgoing: no

Incoming: In plain terms: is recorded z-score at least 0.5 for `CS(=O)(=O)Nc1ccc(-c2cc(-c3ccccc3)cc(C(N)=O)c2N)cc1` ?
Outgoing: yes

Incoming: In plain terms: is recorded z-score at least 0.5 for `NCc1ccc(-n2c(-c3nonc3N)nc3cnccc32)cc1` ?
Outgoing: no

Incoming: In plain terms: is recorded z-score at least 0.5 for `Fc1ccc(-c2nn3ccccc3c2-c2ccncc2)cc1` ?
Outgoing: no

Incoming: In plain terms: is recorded z-score at least 0.5 for `Clc1ccc(-c2nn3ncccc3c2-c2ccnc(Nc3ccccc3)n2)cc1` ?
Outgoing: yes

Incoming: In plain terms: is recorded z-score at least 0.5 for `O=C1NC(=O)C(c2cccc(Cl)c2)=C1Nc1ccc(Cl)c(C(=O)O)c1` ?
Outgoing: no

Incoming: In plain terms: is recorded z-score at least 0.5 for `CS(=O)(=O)CCNCc1nc(-c2ccc3ncnc(Nc4ccc(F)c(Cl)c4)c3c2)cs1` ?
Outgoing: yes
